Source: PubChem BioAssay AID2060507

tested on: 519858-162-T-J1-PDC complex spheroid viability; assay: Anticancer human tumor 519858-162-T-J1-PDC patient-derived colon adenocarcinoma cell line growth inhibition [GQUAD]; details: second compound 0.1 µM; first compound 1 µM; stronger effect = lower value;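 further: spheroids exposed to compounds for 7 days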
Kindly apply the following: rule met if viability, T/C is less than 70%, rule not met in every other case.

- compound: "CC1COCCN1c1cc(C2(O)CC3CCC(C2)O3)c2cnn(-c3ccn[nH]3)c2n1 (stereo not given) + CN(C)c1ccc(Nc2c3ccc(NC(=O)CCN4CCCC4)cc3nc3cc(NC(=O)CCN4CCCC4)ccc23)cc1"
  labelClass: "rule not met"
- compound: "C#Cc1c(F)ccc2cc(O)cc(-c3ncc4c(N5CC6CCC(C5)N6)nc(OCC56CCCN5CC(F)C6)nc4c3F)c12 (stereo not given) + Cc1cnc(CNC(=O)c2c(=O)c3ccc(N4CCCN(C)CC4)nc3n3c2sc2ccccc23)cn1"
  labelClass: "rule not met"
- compound: "COc1ccc([C@@H](O)c2cc(-c3ncnc4cc(N5CCOCC5)ccc34)c(F)cc2Cl)nn1 + Cc1cnc(CNC(=O)c2c(=O)c3ccc(N4CCCN(C)CC4)nc3n3c2sc2ccccc23)cn1"
  labelClass: "rule met"

q: Just wondering, is viability, T/C of C#Cc1c(F)ccc2cc(O)cc(-c3ncc4c(N5CC6CCC(C5)N6)nc(OCC56CCCN5CC(F)C6)nc4c3F)c12 (stereo not given) + CN(C)c1ccc(Nc2c3ccc(NC(=O)CCN4CCCC4)cc3nc3cc(NC(=O)CCN4CCCC4)ccc23)cc1 below 70%?
a: rule not met

q: Just wondering, is viability, T/C of CC(C)(O)C1CCC(Nc2ccc3ncc(-c4cccc(C(F)(F)F)c4)n3n2)CC1 (stereo not given) + Cc1cnc(CNC(=O)c2c(=O)c3ccc(N4CCCN(C)CC4)nc3n3c2sc2ccccc23)cn1 below 70%?
a: rule not met
